tested on: Plasmodium berghei; experiment: Screen against P. berghei liver stage (PbLuc), transformed with Luciferase, at 10uM; assay type: functional, HepG2; settings: tested at 10 uM
About 8,600 (12%) of roughly 69,000 compounds showed an effect of 50% or more. Many of the other results were omitted from the sample, so strong results are more common in it than they were.
Response field label: string, one of y (INHIBITION strictly below 20%) or n.

CCS(=O)(=O)c1ccccc1N1CCC(NC(=O)c2ccc[nH]2)CC1 = y

Input "COc1ncccc1CN1C[C@@H]2COC[C@]2(COc2ccccn2)C1" ; condition: INHIBITION strictly below 20%. Does it hold?
y

Input "COc1cc(OC)cc(N2CCC(NC(=O)c3ccc[nH]3)CC2)c1" ; condition: INHIBITION strictly below 20%. Does it hold?
n

Input "O=C(c1ccoc1)N1C[C@@H]2OCCN(c3ncccn3)[C@@H]2C1" ; condition: INHIBITION strictly below 20%. Does it hold?
y

Input CN(C(=O)c1cccn1C)C1CCC(NC(=O)OC(C)(C)C)CC1 (stereo unspecified) ; condition: INHIBITION strictly below 20%. Does it hold?
n

Input Cc1ncc(C(=O)N2CCCC2c2c(C)nn(C)c2C)s1 (stereo unspecified) ; condition: INHIBITION strictly below 20%. Does it hold?
n

Input "CN1CCO[C@H]2CN(C(=O)c3ccoc3)C[C@H]21" ; condition: INHIBITION strictly below 20%. Does it hold?
n

Input Cc1nc(C)n(CC2CCCN(CCC(=O)NC3CCCC3)C2)n1 (stereo unspecified) ; condition: INHIBITION strictly below 20%. Does it hold?
y

Input COc1cc(CN2CCC(NC(=O)c3cccn3C)C2)cc(OC)c1 (stereo unspecified) ; condition: INHIBITION strictly below 20%. Does it hold?
n

Input CC(C)=CCC1(C(=O)O)CCCN(CCC(=O)NC2CC2)C1 (stereo unspecified) ; condition: INHIBITION strictly below 20%. Does it hold?
n

Input "CC(C)N1CCO[C@H]2CN(C(=O)c3ccoc3)C[C@H]21" ; condition: INHIBITION strictly below 20%. Does it hold?
n

----------
system: Plasmodium berghei; test: Screen against P. berghei liver stage (PbLuc), transformed with Luciferase, at 10uM; type: functional, HepG2; details: tested at 10 uM
Screen size: about 69,000 compounds; about 8,600 (12%) showed an effect of 50% or more. The entries come from a sample that favours strong results as a whole.
measured.metric: INHIBITION (%)
Reply with just the number (in %).

Examples with answers:
CCN(CC)c1ccc(C2c3c(n[nH]c3C)N=C3COC(=O)C32)cc1 (stereo not drawn) = 68.1
COc1ccc(OC)c(C2c3c(n[nH]c3C)N=C3COC(=O)C32)c1 (stereo not drawn) = -15
CC(=O)NCc1ccc(-n2ccnc2C)nc1 = 57.6
CCOc1ccc(C2c3c(N)nc(SC)nc3N=C3COC(=O)C32)cc1 (stereo not drawn) = -44.5
O=C(Nc1ccccc1-c1ccccc1)NC1CCC2(C1)OCCO2 (stereo not drawn) = -6.67

Endpoint output: INHIBITION of CNc1cncc(C2CCCN2Cc2cccc(C)n2)n1 (stereo not drawn) . Value?
45.6

Endpoint output: INHIBITION of COc1ccc(C2c3c(n[nH]c3C)N=C3COC(=O)C32)cc1OC (stereo not drawn) . Value?
-2.37

Endpoint output: INHIBITION of Cc1cc(C)nc(NC2CCc3nc(C)nn3C2)n1 (stereo not drawn) . Value?
-12.1

----------
The entries below are paired with their reported INHIBITION.
test system: Plasmodium berghei; assay: Screen against P. berghei liver stage (PbLuc), transformed with Luciferase, at 10uM; assay type: functional, HepG2; conditions: tested at 10 uM
The whole screen tested about 69,000 compounds, of which about 8,600 (12%) showed an effect of 50% or more. The sample holds strong results, similar compounds and a random draw of the others, so the mix is not that of the screen.

CSc1[nH]nc(NC(=O)c2cccnc2)c1C#N = -35.5%
CNCc1cc(C)n(-c2ccccc2OC)c1C = 70.3%
CN(C)C[C@@H]1CCC[C@@H]2CN(c3ncccn3)C[C@@H]21 = 16.1%
CC(C)c1ocnc1C(=O)NC1(c2cccc(F)c2)CCOCC1 = 60.3%
CC(C)OCCN1CCC(Nc2ncccn2)CC1 = 55.9%
O=C(NC1(c2cccc(F)c2)CCOCC1)c1cc[nH]n1 = 13.5%
Cc1nn(C)c(C)c1C1CCCN1Cc1nc(C)c2ccccc2n1 (centres undefined) = 12.7%
COc1ncccc1C(=O)NC1(c2cccc(F)c2)CCOCC1 = 65.3%

Consider now this further compound.
Give the reported INHIBITION for "COc1ccnc(NC2CCN(CC(=O)N3CCCC3)CC2)n1" (system: Plasmodium berghei).
11.6%

----------
system: Plasmodium berghei; experiment: Screen against P. berghei liver stage (PbLuc), transformed with Luciferase, at 10uM; assay type: functional, HepG2; details: tested at 10 uM
Out of some 69,000 compounds screened, about 8,600 (12%) showed an effect of 50% or more. What follows is part of a selection rich in strong results, with near analogues and random picks from the rest.
measured.metric: INHIBITION (%)
Reply with just the number (in %).

Examples with answers:
CS(=O)(=O)N1CCCC(Cc2cncc(Br)c2)CC1 (configuration not stated) = 29.3
CC(C)CNc1nc2c(cc1C(=O)NCC1CC1)CCNCC2 = 94.5
CNC(=O)c1cc2c(nc1NCC(C)C)CCN(S(=O)(=O)C1CC1)CC2 = -6.75

Endpoint output: INHIBITION of CC(C)N1CCCC(Cc2cncc(Br)c2)CC1 (configuration not stated) . Value?
51.5

Endpoint output: INHIBITION of COc1cccc2ccn(CCC(=O)N3CCCC(C(=O)O)C3)c12 (configuration not stated) . Value?
-19.7

Endpoint output: INHIBITION of O=C(NCC(F)(F)F)C1CSCN1S(=O)(=O)c1ccc(F)cc1Cl (configuration not stated) . Value?
-19.6

Endpoint output: INHIBITION of CN1CCN(C(=O)c2cncc(CC3CCCN(C)C3)c2)CC1 (configuration not stated) . Value?
37

Endpoint output: INHIBITION of CC(=O)N1CCCC(Cc2cncc(Br)c2)C1 (configuration not stated) . Value?
44.1

Endpoint output: INHIBITION of CN1CCCC(Cc2cncc(Br)c2)CC1 (configuration not stated) . Value?
44.9

Endpoint output: INHIBITION of "CC(C)Nc1nc2c(cc1C(=O)NCC1CC1)CCNCC2" . Value?
32.7

Endpoint output: INHIBITION of "CNC(=O)c1cc2c(nc1NCC1CC1)CCN(c1ncccn1)CC2" . Value?
-17.1

Endpoint output: INHIBITION of "CNC(=O)c1cc2c(nc1NCC(C)C)CCN(C)CC2" . Value?
48.7

----------
The entries below are paired with their reported INHIBITION.
tested on: Plasmodium berghei; experiment: Screen against P. berghei liver stage (PbLuc), transformed with Luciferase, at 10uM; format: functional, HepG2; settings: tested at 10 uM
The campaign covered roughly 69,000 compounds. About 8,600 (12%) showed an effect of 50% or more. This excerpt belongs to a sample that is enriched for strong results.
Reply with just the number (in %).

Give the reported INHIBITION for COc1ccccc1-c1csc(NC(=O)N2CCN(C)CC2C)n1 (stereo unspecified) (system: Plasmodium berghei).
-9.08

Give the reported INHIBITION for "COCc1nn(C(C)C)c2c1CCN(Cc1ccsc1)C2" (system: Plasmodium berghei).
-21.1

Give the reported INHIBITION for CC(=O)N1CC(=O)N(c2cccnc2)CC12CCN(Cc1nccs1)C2 (stereo unspecified) (system: Plasmodium berghei).
-3.52

Give the reported INHIBITION for "CCc1nc(CNC2CCN(S(C)(=O)=O)CC2)cs1" (system: Plasmodium berghei).
28.3

Give the reported INHIBITION for "CC1=N[C@@]2(CC[C@@H]3CN(Cc4ccccc4F)C[C@@H]32)C(=O)N1CC1CC1" (system: Plasmodium berghei).
20.1

Give the reported INHIBITION for "CNC(=O)[C@@H](c1ccccc1)N1CCC[C@H]1C(=O)NCc1cccnc1" (system: Plasmodium berghei).
-1.12

----------
tested on: Plasmodium berghei; experiment: Screen against P. berghei liver stage (PbLuc), transformed with Luciferase, at 10uM; type: functional, HepG2; details: tested at 10 uM
Among all 69,000 compounds or so, about 8,600 (12%) showed an effect of 50% or more. Many of the other results were omitted from the sample, so strong results are more common in it than they were.
measured.metric: INHIBITION
Answers without a unit are incomplete; give the number and then its unit.

Examples with answers:
COCc1ncn2c1CN(C(=O)Nc1ccccc1)CC2 = -22.1%
CC(C)N1CCO[C@@H]2CN(C(=O)Cc3cccs3)CC[C@@H]2C1 = 59.3%
CC(C)c1ncncc1C(=O)NCCN1CCCCCC1 = 35.4%
Cc1cccc(OCCC(=O)NC(C)c2nnc3n2CCC3)c1 (centres undefined) = 26.4%
CCOC(=O)c1cnn(C2CCN(C(=O)CCC(C)C)CC2)c1N = 38.3%
OC(CN(Cc1ccccc1)Cc1ccon1)c1cccs1 (centres undefined) = 70.1%
c1ccc(C[C@H]2CN(Cc3nccs3)CC[C@@H]2OCC2CC2)cc1 = 62.5%
CCO[C@@H]1CCN(c2ccc(C)nn2)[C@@H]1Cc1cnn(C)c1 = 24.8%
CN(C)CCN1CCO[C@@H]2CN(C(=O)Cc3ccsc3)CC[C@@H]2C1 = 51.2%
Cc1ccc(SC2CCCC2)c(C(=O)NCCc2n[nH]c(=O)[nH]2)c1 = 49.9%

Endpoint output: INHIBITION of NCC(CO)Cc1ccc(OC(F)(F)F)cc1 (centres undefined) . Value?
19%

Endpoint output: INHIBITION of "O=c1[nH]c2cn(-c3ccc(Cl)cc3)c(=O)n2[nH]1" . Value?
-20.6%
